The measured values listed here are drawn from ChEMBL document CHEMBL1629636.

assay: Antimicrobial activity against Borrelia burgdorferi B31 after 72 hrs by colorimetric assay; format: functional; details: Borreliella burgdorferi
Property name: MBC (µg/mL)
One number for each entry, in µg/mL.

Some solved entries appear below for comparison.
Entry smiles	Readout unit	MBC
CC1(C)S[C@@H]2[C@H](NC(=O)[C@H](N)c3ccc(O)cc3)C(=O)N2[C@H]1C(=O)O	µg/mL	16
CC[C@H]1OC(=O)[C@H](C)[C@@H](O[C@H]2C[C@@](C)(OC)[C@@H](O)[C@H](C)O2)[C@H](C)[C@@H](O[C@@H]2O[C@H](C)C[C@H](N(C)C)[C@H]2O)[C@](C)(O)C[C@@H](C)C(=O)[C@H](C)[C@@H](O)[C@]1(C)O	µg/mL	4
CO/N=C(\C(=O)N[C@@H]1C(=O)N2C(C(=O)O)=C(CSc3nc(=O)c(O)nn3C)CS[C@H]12)c1csc(N)n1	µg/mL	2
C[C@H]1c2cccc(O)c2C(=O)C2=C(O)[C@]3(O)C(=O)C(C(N)=O)=C(O)[C@@H](N(C)C)[C@@H]3[C@@H](O)[C@@H]21.O	µg/mL	16

Attention now turns to another entry.
Record summary for CC[C@H]1OC(=O)[C@H](C)[C@@H](O[C@H]2C[C@@](C)(OC)[C@@H](O)[C@H](C)O2)[C@H](C)[C@@H](O[C@@H]2O[C@H](C)C[C@H](N(C)C)[C@H]2O)[C@](C)(OC)C[C@@H](C)C(=O)[C@H](C)[C@@H](O)[C@]1(C)O : reported MBC = 2
